target: hMOR (Homo sapiens, UniProt P35372); construct: expressed in transfected cells; host or cells: HEK 293T (ATCC CRL-11268), transient; assay: Tango β-arrestin recruitment assay, hMOR; type: cell-based; conditions: Tango
Sequence (P35372 whole entry): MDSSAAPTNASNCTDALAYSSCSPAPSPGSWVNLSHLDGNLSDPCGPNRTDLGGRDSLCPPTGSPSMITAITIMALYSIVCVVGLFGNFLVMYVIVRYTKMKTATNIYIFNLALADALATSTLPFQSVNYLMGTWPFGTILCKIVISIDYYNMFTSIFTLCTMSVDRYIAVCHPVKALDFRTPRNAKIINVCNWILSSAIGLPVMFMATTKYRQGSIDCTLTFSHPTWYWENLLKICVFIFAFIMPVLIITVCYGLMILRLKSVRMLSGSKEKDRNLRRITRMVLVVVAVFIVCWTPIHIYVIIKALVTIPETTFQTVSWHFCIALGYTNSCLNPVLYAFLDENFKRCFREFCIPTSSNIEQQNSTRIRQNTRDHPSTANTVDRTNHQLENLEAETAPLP

| compound | Arrestin pEC50±SEM hMOR |
| --- | --- |
| O=C(N[C@@H]1C=CC2[C@H]3Cc4ccc(O)c5c4[C@@]2(CCN3CC2CC2)[C@H]1O5)c1cccc(I)c1 (stereo partly shown) [MP1104, reference compound] | 9.24 |
| CO[C@@]12CC[C@@H](NC(=O)c3cccc(I)c3)C3Oc4c(O)ccc5c4[C@@]31CCN(CC1CC1)C2C5 (stereo partly shown) | 7.8 |
| O=C(N[C@@H]1CC[C@@]2(O)[C@H]3Cc4ccc(O)c5c4[C@@]2(CCN3CC2CC2)[C@H]1O5)c1cccc(I)c1 [IBNtxA, reference compound] | 8.2 |
| O=C(N[C@@H]1CC[C@@]2(O)C3Cc4ccc(O)cc4[C@@]2(CCN3CC2CC2)C1)c1cccc(I)c1 | 8.4 |
